Entry source: patent US20220411388A1

test-description: Compound solubility in water
Type: physicochemical
Each entry below carries its reported solubility.
readout-kind: solubility

compound | measured
Cc1ccc(-c2cn(C(=O)NCCC(C)C)cn2)cn1 | 7.3 µg/mL
COc1nc(C2CCOC2)cn1C(=O)NCCC(C)C (centres unmarked) | 28 µg/mL
O=C(NCCOc1ccccc1)n1cnc(-c2ccccc2)c1 | 0.06 µg/mL
COc1nc(C)cn1C(=O)NCCC1CC(F)(F)C1 | 30 µg/mL
COc1ccc(-c2cn(C(=O)NCCc3ccccc3)cn2)cn1 | 25.1 µg/mL
Cc1cn(C(=O)NCc2ccc(-c3ccccc3)cc2)c(OCCN2CCN(C)CC2)n1 | 30 µg/mL
CC(C)CCNC(=O)n1cc(C(C)(C)C)nc1Oc1ccc(F)cc1 | 1 µg/mL
CCc1cn(C(=O)NCCC(C)C)c(OC)n1 | 23 µg/mL
O=C(NCCc1ccccc1)n1cnc(-c2cccnc2)c1 | 16.2 µg/mL
COc1nc(-c2cccnc2)cn1C(=O)NCCC1CC1 | 26.5 µg/mL
CCOc1nc(-c2cccnc2)cn1C(=O)NCCC1CC1 | 16.8 µg/mL
CC(C)Oc1nc(-c2cccnc2)cn1C(=O)NCCC1CC1 | 25 µg/mL
CN(C)Cc1ccc(-c2cn(C(=O)NCCc3ccccc3)cn2)cc1 | 25.6 µg/mL
COc1nc(Br)cn1C(=O)NCCCC(F)(F)F | 31 µg/mL

----------
test-description: Compound solubility in water
Assay type: physicochemical

chemical-structure | output-unit | solubility
CCC(C)(C)c1cn(C(=O)NCCC(C)C)c(OC)n1 | µg/mL | 14
CC(C)CCNC(=O)n1ccnc1OC(C)C | µg/mL | 21
COc1nccn1C(=O)NCCCCC1(C(F)(F)F)CC1 | µg/mL | 27

----------
test-description: Compound solubility in water
Format: physicochemical
readout-kind: solubility (µg/mL)

molecule | readout-kind | measured
COc1nc(C2CC2)cn1C(=O)NC1CC1 [Example 125] | solubility | 14
COc1nc(C2CCCC2)cn1C(=O)NC1CCCCC1 [Example 106] | solubility | 6
COc1nc(C(C)(C)C)cn1C(=O)NCCCCC1CC1 [Example 97] | solubility | 3
O=C(NCCC1CC1)n1cnc(-n2ccc(F)n2)c1 [Example 74] | solubility | 34
COc1nc(Cl)cn1C(=O)NCCCC(F)(F)F [Example 168] | solubility | 34
COc1ccc(-c2cn(C(=O)NCCC3(C(F)(F)F)CC3)cn2)cn1 [Example 71] | solubility | 22
O=C(NCCCC(F)(F)F)n1ccnc1Oc1ccccc1 [Example 178] | solubility | 32
O=C(NCCC1CC1)n1cnc(-c2ccns2)c1 [Example 72] | solubility | 22
COc1nc(C)cn1C(=O)NCCCC(C)C [Example 142] | solubility | 22
O=C(NCCC1CC1)n1cnc(-c2cccnc2N2CCC(N3CCOCC3)CC2)c1 [Example 54] | solubility | 32.8
COc1nc(C)cn1C(=O)NCC#CCC1(C(F)(F)F)CC1 [Example 182] | solubility | 25
COc1nc(C)cn1C(=O)NCCCC(F)(F)F [Example 139] | solubility | 32
CC(C)CCNC(=O)n1cnc(-c2ccccc2C2CCN(C)CC2)c1 [Example 38] | solubility | 35.3

----------
assay-system: acid ceramidase (hACR) (Homo sapiens, UniProt Q13510)
Construct: expressed in transfected cells
Sequence (Q13510 22-395): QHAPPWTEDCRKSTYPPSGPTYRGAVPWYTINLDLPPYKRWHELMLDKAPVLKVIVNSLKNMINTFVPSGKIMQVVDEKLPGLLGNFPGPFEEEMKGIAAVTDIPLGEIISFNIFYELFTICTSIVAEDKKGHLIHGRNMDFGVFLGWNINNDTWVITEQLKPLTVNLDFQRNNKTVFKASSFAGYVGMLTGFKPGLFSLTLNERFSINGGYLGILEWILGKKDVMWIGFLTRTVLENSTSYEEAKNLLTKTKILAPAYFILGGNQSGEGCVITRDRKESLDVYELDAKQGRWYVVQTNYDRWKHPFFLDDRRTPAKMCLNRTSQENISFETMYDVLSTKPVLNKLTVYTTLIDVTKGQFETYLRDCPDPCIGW
test-description: Acid ceramidase inhibition, biochemical fluorescent assay with cell lysates overexpressing acid ceramidase (substrate Rbm14-12)
assay-context: cell lysate, 1 hr preincubation at RT, pH 4.5, Rbm14-12 6.3 μM; read-out: IC50 hACR
Each entry below carries its reported IC50.

molecule | IC50
O=C(NCc1ccccc1)n1cnc(-c2cccnc2)c1 | 200 to 1000 nM
CC(C)CCNC(=O)n1cnc(-c2ccccn2)c1 | 200 to 1000 nM
COc1nc(C)cn1C(=O)NCCCC(C)C | 200 to 1000 nM
COc1nc(C(C)(C)C)cn1C(=O)NCCc1ccccc1 | 200 to 1000 nM
CCOc1nc(-c2cccnc2)cn1C(=O)NCCC(C)C | > 1000 nM
CSc1nc(-c2cccnc2)cn1C(=O)NCCC1CC1 [Example 67a] | 200 to 1000 nM
CC(C)OCCNC(=O)n1cnc(-c2cccnc2)c1 | > 1000 nM
N#Cc1ccc(-c2cn(C(=O)NCCc3ccccc3)cn2)cn1 | < 200 nM
Cc1cn(C(=O)NCC#Cc2ccccc2)c(OCCN2CCOCC2)n1 | < 200 nM
